Sourced from patent US20220273619A1

assay: Solubility at room temperature, manual dilution combined with visual observation; type: physicochemical; details: 2-methyl tetrahydrofuran; room temperature; read-out: Solubility
Where a SMILES comes first, the peptide text is derived from it. The star is where a group is joined. Palmitoyl = CCCCCCCCCCCCCCCC(=O)*
Attribute: solubility

CCCCCCCCCCCCCCCC(=O)N1CCC[C@H]1C(=O)N1CCC[C@H]1C(=O)NCC(=O)N[C@@H](Cc1ccc(O)cc1)C(=O)[O-].[Na+] [Compound I] (Palmitoyl-PPGY-OH) :: > 100 mg/mL

Looking for the measured solubility of CCCCCCCCCCCCCCCC(=O)N1CCC[C@H]1C(=O)N1CCC[C@H]1C(=O)NCC(=O)N[C@@H](Cc1ccc(O)cc1)C(=O)O [Compound II] (Palmitoyl-PPGY-OH) , can you help?
< 1 mg/mL

###

Attribute: solubility
assay: Solubility at room temperature, manual dilution combined with visual observation; format: physicochemical; conditions: acetonitrile; room temperature; read-out: Solubility
Where a SMILES comes first, the peptide text is derived from it. The star is where a group is joined. Palmitoyl = CCCCCCCCCCCCCCCC(=O)*

CCCCCCCCCCCCCCCC(=O)N1CCC[C@H]1C(=O)N1CCC[C@H]1C(=O)NCC(=O)N[C@@H](Cc1ccc(O)cc1)C(=O)O [Compound II] (Palmitoyl-PPGY-OH) :: < 1000 µg/mL

Looking for the measured solubility of CCCCCCCCCCCCCCCC(=O)N1CCC[C@H]1C(=O)N1CCC[C@H]1C(=O)NCC(=O)N[C@@H](Cc1ccc(O)cc1)C(=O)[O-].[Na+] [Compound I] (Palmitoyl-PPGY-OH) , can you help?
< 1000 µg/mL

###

assay: Solubility by shaking at 25° C., filtration and HPLC of the filtrate; assay type: physicochemical; conditions: water with 1% SLS, 1% SLS added; Water; LOQ = 2 μg/mL; read-out: Solubility
Where a SMILES comes first, the peptide text is derived from it. The star is where a group is joined. Palmitoyl = CCCCCCCCCCCCCCCC(=O)*
REPORTED_PROPERTY: solubility (µg/mL)
Give the quantity in µg/mL, number only.

Looking for the measured solubility of CCCCCCCCCCCCCCCC(=O)N1CCC[C@H]1C(=O)N1CCC[C@H]1C(=O)NCC(=O)N[C@@H](Cc1ccc(O)cc1)C(=O)O [Compound II] (Palmitoyl-PPGY-OH) , can you help?
470

###

assay: Solubility at room temperature, manual dilution combined with visual observation; assay type: physicochemical; conditions: methanol-H2O (3:1); room temperature; read-out: Solubility
Where a SMILES comes first, the peptide text is derived from it. The star is where a group is joined. Palmitoyl = CCCCCCCCCCCCCCCC(=O)*
Attribute: solubility

CCCCCCCCCCCCCCCC(=O)N1CCC[C@H]1C(=O)N1CCC[C@H]1C(=O)NCC(=O)N[C@@H](Cc1ccc(O)cc1)C(=O)[O-].[Na+] [Compound I] (Palmitoyl-PPGY-OH) :: > 100 mg/mL

Looking for the measured solubility of CCCCCCCCCCCCCCCC(=O)N1CCC[C@H]1C(=O)N1CCC[C@H]1C(=O)NCC(=O)N[C@@H](Cc1ccc(O)cc1)C(=O)O [Compound II] (Palmitoyl-PPGY-OH) , can you help?
< 1 mg/mL

###

Attribute: solubility
assay: Solubility at room temperature, manual dilution combined with visual observation; type: physicochemical; details: ethanol-H2O (3:1); room temperature; read-out: Solubility
Where a SMILES comes first, the peptide text is derived from it. The star is where a group is joined. Palmitoyl = CCCCCCCCCCCCCCCC(=O)*

Looking for the measured solubility of CCCCCCCCCCCCCCCC(=O)N1CCC[C@H]1C(=O)N1CCC[C@H]1C(=O)NCC(=O)N[C@@H](Cc1ccc(O)cc1)C(=O)[O-].[Na+] [Compound I] (Palmitoyl-PPGY-OH) , can you help?
50 to 100 mg/mL

Try this molecule next: CCCCCCCCCCCCCCCC(=O)N1CCC[C@H]1C(=O)N1CCC[C@H]1C(=O)NCC(=O)N[C@@H](Cc1ccc(O)cc1)C(=O)O [Compound II] (Palmitoyl-PPGY-OH)
< 1 mg/mL
